The reported measurements were obtained from paper PMC9851200.

tested on: endogenous TFE3; assay: TFE3 nuclear translocation, immunocytochemistry high-content imaging; format: cell-based; settings: PKIS2 primary screening
Assay metric: TFE3 % (%)
Numeric only. Scale: %

> print(dat)
                                   compound  assay.metric  measurement.units  value
1  CNc1nccc(-c2c(-c3ccc(F)cc3)ncn2C2CCN(C)CC2)n1 [UNC10225274A]        TFE3 %                  %  15.08
2  COc1ccc(Nc2nccc(N3CCC(NC(=O)C(C)c4ccc(Cl)cc4)C3)n2)cc1 (centres unmarked)        TFE3 %                  %  11.71
3  COc1ccc(Nc2nccc(N3CCC(NC(=O)c4cccc(C#N)c4)C3)n2)cc1 (centres unmarked)        TFE3 %                  %  13.54
4  CS(=O)(=O)CCNCc1nc(-c2ccc3ncnc(Nc4ccc(OCc5cccc(F)c5)c(Cl)c4)c3c2)cs1.Cl [UNC10225091A]        TFE3 %                  %   9.84
5  Cc1n[nH]c2cc(Nc3ccnc(Nc4cccc(CN5CCOCC5)c4)n3)ccc12        TFE3 %                  %   9.15

The recorded TFE3 % for `NC(=O)c1cccc(Nc2nccc(Nc3ccc(Oc4cccc(Cl)c4)c(Cl)c3)n2)c1` is 11.36

The recorded TFE3 % for Cc1ccc(C(=O)Nc2ccc(Nc3ccnc4cc(-c5ccccn5)ccc34)cc2O)cc1.Cl [UNC10225182A] is 92.07

* * *

Entries and their Nuclear Count
tested on: SH-SY5Y cells; experiment: Nuclear count from microscopy images (cellular growth and toxicity); conditions: PKIS2 primary screening; also: reference of the scale not given here
Provide a numeric answer; units are not to be included.

> print(dat)
                                   molecule  value
1  Nc1ncc(-c2ccc3nccc(-c4ccncc4)c3c2)cc1S(=O)(=O)N1CCOCC1 [UNC10225011A]  96.85
2  CN1CCN(CCCNc2nccc(-c3c(-c4ccc(F)cc4)nn4cc(C(N)=O)ccc34)n2)CC1 [UNC10225188A]  94.19
3  Nc1ncnc2scc(-c3ccc(NC(=O)Cc4cc(F)ccc4F)cc3)c12.O=C(O)C(F)(F)F [UNC10225107A]  68.49

The recorded Nuclear Count for Cc1c(O)cccc1Nc1ccnc2ccc(C(F)(F)F)cc12.Cl [UNC10225099A] is 127.64

The recorded Nuclear Count for O=C(Nc1cccc(-c2nn3ncccc3c2-c2ccnc(Nc3cccc(C(F)(F)F)c3)n2)c1)c1c(F)cccc1F [UNC10225174A] is 93.11

The recorded Nuclear Count for `COC(=O)c1cccc(NC(=O)NC2CCN(c3ccnc(NCc4ccc(F)cc4)n3)CC2)c1` is 118.43

The recorded Nuclear Count for COc1cc(Nc2nccc(N3CCC(NC(=O)c4cc5ccccc5s4)C3)n2)cc(OC)c1OC (stereo not shown) is 107.53

The recorded Nuclear Count for CN(C)CCNS(=O)(=O)c1ccc(-c2ccnc3[nH]ccc23)cc1 [UNC10225452A] is 78.72

* * *

test system: SH-SY5Y cells; settings: PKIS2 primary screen, DQ Red BSA spot count
hey, just use 1 if measured DQ Spot is less than 90, otherwise 0

These solved cases illustrate the format of a correct answer.
> print(dat)
                                   compound  category
1  NS(=O)(=O)c1cccc(N/C=C2\C(=O)Nc3ccc(S(=O)(=O)Cc4c(Cl)cccc4Cl)cc32)c1 [UNC10225298A]         0
2  Cc1c(Cn2c(C)nn3c(=O)cc(N4CCOC(C)C4)nc23)cccc1C(F)(F)F (centres unmarked) [UNC10225005A]         1
3  O=C(Nc1c(F)cccc1F)c1cc(C(=O)c2ccccc2F)c[nH]1 [UNC10225351A]         0
4  O=c1[nH]cc(-c2ccc(O)cc2)c2sc(-c3ccncc3)cc12 [UNC10225166A]         1
5  CCN(CC)CCOc1ccc(Nc2ncc3cc(-c4c(Cl)cccc4Cl)c(=O)n(C)c3n2)cc1 [UNC10225459A]         1
6  O=C(NCc1cccs1)c1cc(C(=O)c2c(Cl)cccc2Cl)c[nH]1 [UNC10225502A]         0

### Prompt Identify whether the compound COc1ccccc1CNC(=O)c1cc(C(=O)c2ccccc2C)c[nH]1 [UNC10225294A] records DQ Spot below 90.
### Response 0
